SYSTEM UNDER TEST: reuptake of dopamine (DA) in synaptosomes (Rattus norvegicus, UniProt P23977)
Construct: in synaptosomes as described in WO 97/16451; from tissue
Sequence (P23977 whole entry): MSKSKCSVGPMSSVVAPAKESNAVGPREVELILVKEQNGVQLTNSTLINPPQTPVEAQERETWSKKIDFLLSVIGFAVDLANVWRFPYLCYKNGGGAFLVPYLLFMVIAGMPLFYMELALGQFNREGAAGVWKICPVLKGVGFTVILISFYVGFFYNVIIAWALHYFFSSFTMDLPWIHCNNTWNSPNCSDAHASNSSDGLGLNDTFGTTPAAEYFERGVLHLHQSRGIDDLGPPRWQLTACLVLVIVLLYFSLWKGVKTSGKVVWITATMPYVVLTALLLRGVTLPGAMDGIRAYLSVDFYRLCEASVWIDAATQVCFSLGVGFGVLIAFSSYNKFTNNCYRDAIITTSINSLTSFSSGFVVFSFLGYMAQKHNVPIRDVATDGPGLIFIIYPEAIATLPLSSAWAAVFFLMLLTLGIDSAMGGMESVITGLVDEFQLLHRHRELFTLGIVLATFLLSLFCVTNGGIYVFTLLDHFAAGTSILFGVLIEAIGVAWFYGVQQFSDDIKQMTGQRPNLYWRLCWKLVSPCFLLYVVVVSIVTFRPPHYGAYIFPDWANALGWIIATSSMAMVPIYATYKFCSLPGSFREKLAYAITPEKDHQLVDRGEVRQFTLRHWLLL
TEST DETAILS: Inhibition of dopamine reuptake in synaptosomes
Format: biochemical
STATED CONDITIONS: 3H-DA, read-out: DA-uptake IC50
pIC50: −log10 of the molar value.
MEASURED PROPERTY: pIC50

{"columns": ["MOLECULE", "SYSTEM UNDER TEST", "MEASURED PROPERTY", "MEASUREMENT"],
 "data": [
  ["COc1ccc2cc(OC3CC4CCC(C3)N4)ccc2c1 (centres unmarked) [First compound of Example A]", "reuptake of dopamine (DA) in synaptosomes (Rattus norvegicus, UniProt P23977)", "pIC50", 6.38],
  ["COc1ccc2ccc(OC3CC4CCC(C3)N4)cc2c1 (centres unmarked) [Last compound of Example A]", "reuptake of dopamine (DA) in synaptosomes (Rattus norvegicus, UniProt P23977)", "pIC50", 5.85]
]}

The reported measurements were obtained from patent US8110586B2.
